test system: Verconica persica (VERPE); test: Post-emergence herbicidal action against VERPE; format: in vivo; conditions: 320 g/ha, VERPE

>  <Molecule>
O=C(COc1nn(-c2ncccc2F)c(-c2ccc(F)nc2)c1C1CC1)OCC1CCCO1 (stereo not shown)

>  <Unit spec>
%

>  <Post-emergence action against VERPE in %>
90

$$$$
>  <Molecule>
COC(=O)CCOC(=O)COc1nn(-c2ncccc2F)c(-c2ccc(F)nc2)c1Cl

>  <Unit spec>
%

>  <Post-emergence action against VERPE in %>
80

$$$$
>  <Molecule>
COC(=O)C=CC(C)NC(=O)COc1nn(-c2ccccn2)c(-c2ccc(F)nc2)c1Br (stereo not shown)

>  <Unit spec>
%

>  <Post-emergence action against VERPE in %>
80

$$$$
>  <Molecule>
C[C@@H](Oc1nn(-c2ccccn2)c(-c2cncnc2)c1Cl)C(=O)O

>  <Unit spec>
%

>  <Post-emergence action against VERPE in %>
80

$$$$
>  <Molecule>
COCCOC(=O)COc1nn(-c2cccc(C)n2)c(-c2ccc(F)nc2)c1Cl

>  <Unit spec>
%

>  <Post-emergence action against VERPE in %>
90

$$$$
>  <Molecule>
COC(=O)[C@@H](C)Oc1nn(-c2ccc(F)cn2)c(-c2ccc(F)nc2)c1Br

>  <Unit spec>
%

>  <Post-emergence action against VERPE in %>
80

$$$$
>  <Molecule>
CCOC(=O)[C@@H](C)Oc1nn(-c2ccccn2)c(-c2cncc(F)c2)c1Cl

>  <Unit spec>
%

>  <Post-emergence action against VERPE in %>
90

$$$$
>  <Molecule>
O=C(COc1nn(-c2ncccc2F)c(-c2ccc(F)nc2)c1C1CC1)OCc1ccccc1

>  <Unit spec>
%

>  <Post-emergence action against VERPE in %>
80

$$$$
>  <Molecule>
C[C@@H](Oc1nn(-c2ncccc2F)c(-c2ccnc(F)c2)c1Br)C(=O)O

>  <Unit spec>
%

>  <Post-emergence action against VERPE in %>
90

$$$$
>  <Molecule>
CCOC(=O)[C@@H](C)Oc1nn(-c2nc(F)ccc2F)c(-c2ccc(F)nc2)c1Br

>  <Unit spec>
%

>  <Post-emergence action against VERPE in %>
90

$$$$
>  <Molecule>
COC(=O)[C@@H](C)Oc1nn(-c2ccccn2)c(-c2ccc(F)nc2)c1Br

>  <Unit spec>
%

>  <Post-emergence action against VERPE in %>
80

$$$$
>  <Molecule>
COC(=O)[C@@H](C)COC(=O)COc1nn(-c2ccccn2)c(-c2cncc(F)c2)c1Br

>  <Unit spec>
%

>  <Post-emergence action against VERPE in %>
80

$$$$
>  <Molecule>
COC(=O)[C@H](C)COC(=O)COc1nn(-c2ccccn2)c(-c2cncc(F)c2)c1Br

>  <Unit spec>
%

>  <Post-emergence action against VERPE in %>
80

$$$$
>  <Molecule>
COC(=O)CCOC(=O)COc1nn(-c2ccccn2)c(-c2ccc(Cl)nc2)c1Br

>  <Unit spec>
%

>  <Post-emergence action against VERPE in %>
80

$$$$
>  <Molecule>
COC(=O)CNC(=O)COc1nn(-c2ccccn2)c(-c2ccc(F)nc2)c1F

>  <Unit spec>
%

>  <Post-emergence action against VERPE in %>
80

$$$$
>  <Molecule>
O=C(O)COc1nn(-c2ccccn2)c(-c2ccc(F)nc2)c1C1CC1(F)F (stereo not shown)

>  <Unit spec>
%

>  <Post-emergence action against VERPE in %>
80

$$$$
>  <Molecule>
CCOC(=O)COc1nn(-c2ncccc2C(F)(F)F)c(-c2cncc(F)c2)c1Br

>  <Unit spec>
%

>  <Post-emergence action against VERPE in %>
80

$$$$
>  <Molecule>
COC(=O)CNC(=O)COc1nn(-c2cccnc2C)c(-c2cncc(F)c2)c1Br

>  <Unit spec>
%

>  <Post-emergence action against VERPE in %>
90

$$$$
>  <Molecule>
CCOC(=O)COc1nn(-c2ncccc2F)c(-c2ccc(F)nc2)c1F

>  <Unit spec>
%

>  <Post-emergence action against VERPE in %>
90

$$$$
>  <Molecule>
COC(=O)COc1nn(-c2nc(F)ccc2F)c(-c2ccc(F)nc2)c1Br

>  <Unit spec>
%

>  <Post-emergence action against VERPE in %>
80

$$$$
>  <Molecule>
COC(=O)COc1nn(-c2ncccc2F)c(-c2ccc(F)nc2)c1C1CC1

>  <Unit spec>
%

>  <Post-emergence action against VERPE in %>
90

$$$$
>  <Molecule>
O=C(COc1nn(-c2ncccc2F)c(-c2ccc(F)nc2)c1C1CC1)OCC1COC1

>  <Unit spec>
%

>  <Post-emergence action against VERPE in %>
90

$$$$
>  <Molecule>
COC(=O)C(C)NC(=O)[C@@H](C)Oc1nn(-c2ccccn2)c(-c2cncc(F)c2)c1Br (stereo partly shown)

>  <Unit spec>
%

>  <Post-emergence action against VERPE in %>
90

$$$$
>  <Molecule>
CCOC(=O)COc1nn(-c2cccnc2C)c(-c2cncc(F)c2)c1Br

>  <Unit spec>
%

>  <Post-emergence action against VERPE in %>
90

$$$$
>  <Molecule>
COC(=O)[C@@H](C)Oc1nn(-c2ncccc2F)c(-c2ccc(F)nc2)c1Br

>  <Unit spec>
%

>  <Post-emergence action against VERPE in %>
90

$$$$
